Ref: the supplement of paper PMC9170038

tested on: MS2 coat protein; experiment: apparent KD of MS2 coat protein; designed switch direction (-1 OFF switch, 1 ON switch): -1; higher = weaker reporter binding; conditions: input ligand: microRNA oligo, concentration not stated
Label t when apparent KD of MS2 coat protein is at or above 40 nM; anything below gets f.

IN: Please indicate if the recorded apparent KD of MS2 coat protein for AGAUGCUCGAGUCGACAUGAGGAUCACCCAUGUACAGUUAGUGAGGAUAUCUGAGACACAUAGUAGGAGAAGGCGCGAACAUGA [Ex NG3 #13] (Eterna round: R96, puzzle: Exclusion NG 3) meets or exceeds 40 nM.
OUT: t

IN: Please indicate if the recorded apparent KD of MS2 coat protein for AAAAUACGCACAGGAUAUCAAUACAUGAGGAUCACCCAUGUAACAUGGACUGGUCAGCAGAAAAGUGAGAAGGGUGCUGACGAC [Beraon] (Eterna round: R96, puzzle: Exclusion NG 2) meets or exceeds 40 nM.
OUT: f

IN: Please indicate if the recorded apparent KD of MS2 coat protein for UUUGUUUUGGUAGGAUAUACUUUUAUUUUCUCUUUCCUUACAUGAGGAUCACCCAUGUUUACAUUGUAGAAGGACCACUUUGUU [JR_ExcNG2_Sub051] (Eterna round: R96, puzzle: Exclusion NG 2) meets or exceeds 40 nM.
OUT: f

IN: Please indicate if the recorded apparent KD of MS2 coat protein for UCUCGCGGGCAAGGAUAUCCUACGCUGUUCUGGCCCGUGUUUGUUACAUGAGGAUCACCCAUGUGGGAGAAGGUGCACCAGGGC [Design 41] (Eterna round: R96, puzzle: Exclusion NG 2) meets or exceeds 40 nM.
OUT: f

IN: Please indicate if the recorded apparent KD of MS2 coat protein for AGCUGUGGCCGAGGAUAUACACAUGAGGAUCACCCAUGUAGGCGCGGAUACGCGCUAAAAUAAUUGUAGAAGGCGGUCUCAGCA [Eli eng2 - 054] (Eterna round: R96, puzzle: Exclusion NG 2) meets or exceeds 40 nM.
OUT: f

IN: Please indicate if the recorded apparent KD of MS2 coat protein for AAAAAAUACAUGAGGAUCACCCAUGUAGAGUGGGAAGAGAGAUAGGAUAUGAUGUGAGAAUCAUAUCAGAAGGAUCGAGACUCA [AK ExNG3-2.2] (Eterna round: R96, puzzle: Exclusion NG 3) meets or exceeds 40 nM.
OUT: t

IN: Please indicate if the recorded apparent KD of MS2 coat protein for ACAUGAGGAUCACCCAUGUCAGGCUGGUCCGCUCCGGCUGUUGAGGAUAUAGCACGGUGUCCGCGCUAGAAGGUGAGGGCCGGC [Aenatbe mod 31] (Eterna round: R96, puzzle: Exclusion NG 3) meets or exceeds 40 nM.
OUT: f

IN: Please indicate if the recorded apparent KD of MS2 coat protein for AGUGCUGGCGCGUCGGUGUUGGUGCAAUAAGCUUGUGAAACAUGAGGAUCACCCAUGUCCUCAUAAGCUCGUCUUAU [salish99_TOv2_r2_085] (Eterna round: R96, puzzle: Sensor v3, turn-off variant 2) meets or exceeds 40 nM.
OUT: t

IN: Please indicate if the recorded apparent KD of MS2 coat protein for AUUAUAUAGACAGGAUAUUGAUUAUUAUUUUAACAUGAGGAUCACCCAUGUAACCUUAUGUGUAACAAGAAGGGUCAUUUAUUA [Title] (Eterna round: R96, puzzle: Exclusion NG 2) meets or exceeds 40 nM.
OUT: t

====

system: MS2 coat protein; assay: apparent KD of MS2 coat protein; designed switch direction (-1 OFF switch, 1 ON switch): -1; higher = weaker reporter binding; conditions: input ligand: FMN 200 uM
Label class 1 when apparent KD of MS2 coat protein is at or above 20 nM; anything below gets class 0.

IN: Please indicate if the recorded apparent KD of MS2 coat protein for ACAAGCUCUGUUGGGUGGUACAUGAGGAUCACCCAUGUUUUGCUCGUCUUGUGGGCCCGGGCCCGCGGCCCGGGCCC [-41.7, -69.7, A 12%] (Eterna round: R97, puzzle: Sensor, turn-off variant 1) meets or exceeds 20 nM.
OUT: class 1

IN: Please indicate if the recorded apparent KD of MS2 coat protein for AGUGCUGGCGCGUCGGUGUUGGUGCAAUAAGCUUGUGAAACAUGAGGAUCACCCAUGUCCUCAUAAGCUCGUCUUAU [salish99_TOv2_r2_085] (Eterna round: R96, puzzle: Sensor v3, turn-off variant 2) meets or exceeds 20 nM.
OUT: class 0

IN: Please indicate if the recorded apparent KD of MS2 coat protein for UGAUCUAGCGGAGGAUAUACAUGAGGAUCACCCAUGUAGUAGUGAGUUGCGUACAGCUCACUUGUGUAGAAGGCCGCUAGAUCU [JL ENG2 3.59] (Eterna round: R96, puzzle: Exclusion NG 2) meets or exceeds 20 nM.
OUT: class 0

IN: Please indicate if the recorded apparent KD of MS2 coat protein for UAUUUAAGAGGAUAUACAUGAGGAUCACCCAUGUAUAUUAAAAUACAUGAUUUUUUAUGUAGAAGGCUUGGGUA [-21.5, -18.3 kcal, 35% A] (Eterna round: R97, puzzle: Exclusion 3) meets or exceeds 20 nM.
OUT: class 1

IN: Please indicate if the recorded apparent KD of MS2 coat protein for ACAAAGGAUACAGGAUAUCGCGUACAAGUGCAGCGAGAAGGGUAUUCUAUGCGCUAUCCGACAUGAGGAUCACCCAUGUGGUCC [Eternabot solution 47] (Eterna round: R96, puzzle: Exclusion NG 1) meets or exceeds 20 nM.
OUT: class 1

IN: Please indicate if the recorded apparent KD of MS2 coat protein for UGAAGUUGUGUGAGGAUAUUUGAAGUGAAAGCUUCGGAGAAGGCACAUGAGGAUCACCCAUGUAAGCGGCUUCG [-25.1, -23 kcal, A 26%, 3bis-3] (Eterna round: R97, puzzle: Brourd's mod of Exclusion 4) meets or exceeds 20 nM.
OUT: class 0

IN: Please indicate if the recorded apparent KD of MS2 coat protein for UCUCGCGGGCAAGGAUAUCCUACGCUGUUCUGGCCCGUGUUUGUUACAUGAGGAUCACCCAUGUGGGAGAAGGUGCACCAGGGC [Design 41] (Eterna round: R96, puzzle: Exclusion NG 2) meets or exceeds 20 nM.
OUT: class 1

IN: Please indicate if the recorded apparent KD of MS2 coat protein for AAAUUUGGAGGAUAUCCAUUGGGAAACAUGAGGAUCACCCAUGUAAUAAAAGGGAAAUCCGGAGAAGGCCAAAUUU [-20.39, -19.1 kcal, 39% A] (Eterna round: R97, puzzle: Exclusion 5) meets or exceeds 20 nM.
OUT: class 1

IN: Please indicate if the recorded apparent KD of MS2 coat protein for ACCUACCAGCUAGGAUAUGCAGUACAGUAAAAUGUAGAAGGAGCACGAUCCAGACAUGAGGAUCACCCAUGUGGGCGGUAGGCA [Errage] (Eterna round: R96, puzzle: Exclusion NG 1) meets or exceeds 20 nM.
OUT: class 0

====

Exercise: state measured apparent KD of MS2 coat protein for each of the sequences provided.
system: MS2 coat protein; assay: apparent KD of MS2 coat protein; designed switch direction (-1 OFF switch, 1 ON switch): -1; higher = weaker reporter binding; conditions: input ligand: microRNA oligo, concentration not stated

Please fill in: apparent KD of MS2 coat protein reported for CUUUUGUGAGGAUAUCAGUAGUAAAUAAAUAAUAUUACUACUGAGAAGGCACAUGAGGAUCACCCAUGUUCCUC [salish99_ex3_r3_083] (Eterna round: R96, puzzle: Exclusion 4) = 39 nM

Please fill in: apparent KD of MS2 coat protein reported for CCGCUCCGUGUAGGAUAUUGGCGUGCCCUGCGCCGAGAAGGACAUGAGGAUCACCCAUGUAUGUUAUUAUCACGCGUGGCGCAC [Design 76] (Eterna round: R96, puzzle: Exclusion NG 1) = 12.9 nM

Please fill in: apparent KD of MS2 coat protein reported for AGAGAAUAGGUAGGAUAUCUUAAUAGAAAGAAUAGAGAAGGACCACAUGAGGAUCACCCAUGUGAAGUCUUGAGACUACAUGGU [Prohibition 31 - Jieux - Exclusion NG 1] (Eterna round: R96, puzzle: Exclusion NG 1) = 15 nM

Please fill in: apparent KD of MS2 coat protein reported for GCACGGAGUGCAGGAUAUCUGUGCGAUUAGCUCAGAGAAGGGCACAUGAGGAUCACCCAUGUGUAUAAACACAAUAAUCCGUGC [Eli exng1 - 068] (Eterna round: R96, puzzle: Exclusion NG 1) = 9.94 nM

Please fill in: apparent KD of MS2 coat protein reported for CCUCCACAUGAGGAUCACCCAUGUCAGGAUAUCGUGUGCGCGUUUUCGGUCUUUCGCGCGAGAAGGGACGACUG (Eterna round: R96, puzzle: Exclusion 1) = 22.5 nM

Please fill in: apparent KD of MS2 coat protein reported for CGAUAUAAGUCAGGAUAUGAGCGCAACUGACGAUCAGAAGGGACACAUGAGGAUCACCCAUGUGAUUUAUCAAUAUUAUACAUC [Prohibition 91 - Jieux - Exclusion NG 1] (Eterna round: R96, puzzle: Exclusion NG 1) = 27.3 nM

Please fill in: apparent KD of MS2 coat protein reported for GGGCUGCGACGCAGCCAAACAAAACAUGAGGAUCACCCAUGUCAGGAUAUACCGAUGCAGCAUCUGUAGAAGGGACAGAUCCAA [Onlaorre] (Eterna round: R96, puzzle: Exclusion NG 3) = 63.5 nM

Please fill in: apparent KD of MS2 coat protein reported for UAUCAUCAUGUAGGAUAUGCGUGGCAAAGCUAUGCAGAAGGACAUGAGGAUCACCCAUGUUCUAGCGUCUGCGUACAGAUGCUA [Mat - Exclusion NG 1 - Mod of JL - D74] (Eterna round: R96, puzzle: Exclusion NG 1) = 45.2 nM

Please fill in: apparent KD of MS2 coat protein reported for GGUAAAGGCCGAGGAUAUCGGAAAGGAAGUGUACGAGAAGGCGGCAAAAGAACAUGAGGAUCACCCAUGUGGGCCGAUCUUCCG [16th something] (Eterna round: R96, puzzle: Exclusion NG 1) = 16.8 nM

Please fill in: apparent KD of MS2 coat protein reported for ACAUGAGGAUCACCCAUGUGGACGAAAAGGCUCAUGUAGAGUGAGGAUAUGUGAGACGAACGAGAACAGAAGGCACAAGACAGG [Deportation 5 - Jieux - Exclusion NG 3] (Eterna round: R96, puzzle: Exclusion NG 3) = 22.3 nM

Please fill in: apparent KD of MS2 coat protein reported for AUGGGUCCUCACGGAGCUACAUGAGGAUCACCCAUGUGGAUUGAGGAUAUCGACAGCCGACGGCUCGAGAAGGCAGUUUACUGU [Ex NG3 #96] (Eterna round: R96, puzzle: Exclusion NG 3) = 23.2 nM

Please fill in: apparent KD of MS2 coat protein reported for CUGAACCCGGUAGGAUAUAUUGUGGGCAAGCAUGGAACGACAUGAGGAUCACCCAUGUAAUUUAGGUAGAAGGGCCGAGAGAUU [Excl-NG2-LRO11] (Eterna round: R96, puzzle: Exclusion NG 2) = 66.3 nM

Please fill in: apparent KD of MS2 coat protein reported for ACAUGUAUUGCAGGAUAUGGGACACAUGAGGAUCACCCAUGUGACCAUAUGUAAUGCCACGGGUCUCAGAAGGGUAUGUACAUG [Ex NG2 #44] (Eterna round: R96, puzzle: Exclusion NG 2) = 10.3 nM

Please fill in: apparent KD of MS2 coat protein reported for GGGAGAGAGUGAGGAUAUCAAAGAACAUGAGGAUCACCCAUGUAACCUCAUGUAAGAAGAAGAAGUGAGAAGGCACAGGAGGGU [Default title] (Eterna round: R96, puzzle: Exclusion NG 2) = 256 nM

Please fill in: apparent KD of MS2 coat protein reported for ACAUGAGGAUCACCCAUGUGAAAACAAUGGCUGACUUUGAGACAGGAUAUUCGUGCAUAUCAAACGAAGAAGGGUCAUUACUGG [Deportation 94 - Jieux - Exclusion NG 3] (Eterna round: R96, puzzle: Exclusion NG 3) = 26.4 nM

Please fill in: apparent KD of MS2 coat protein reported for AUUGUUUAUGUAGGAUAUGCCUGGCGUGCCUUUGCAGAAGGACAUGAGGAUCACCCAUGUAUUGCGGUCUGCGUUCAGAUCGCU [salish99_ExNG1_r4_033] (Eterna round: R96, puzzle: Exclusion NG 1) = 28.7 nM

Please fill in: apparent KD of MS2 coat protein reported for UAUAUAUAGUAAGGAUAUGUAUUUAUUUUGUAAACAGAAGGUACUGACAUGAGGAUCACCCAUGUUUUAGUGUGGGCAUGUAGA [JMF's solution 22] (Eterna round: R96, puzzle: Exclusion NG 1) = 78.5 nM

Please fill in: apparent KD of MS2 coat protein reported for GACAUGAGGAUCACCCAUGUAACCUCAUGUAGGAAGGAGAGUAAGGAUAUAUAUGAAGGAAUGAAGUAGAAGGUGCAUAGAGAG [Default title] (Eterna round: R96, puzzle: Exclusion NG 3) = 1350 nM
